Test system: PC-3
assay comment: NCI tumour cell line growth inhibition, 48 h
Active and inactive are the calls of the source. Cut-off read from the data, not from the text of the source: active = GI50 up to about 1.1 µM and inactive = higher. Starred links: 1 amine or outer side, 2 acyl side, 3 side chain; linkers in the order of their positions; H or OH if unused. Positions of bridges follow the written chain, without caps; N, C: chain ends. Non-standard residues stand in square brackets, D forms with d. Residues, ends and D or L forms follow the SMILES beside them. Chains are numbered I, II in the order given. Actinocin(9to1) = Cc1c2oc3c(C)ccc(C(=O)[*:1])c3nc-2c(C(=O)[*:2])c(N)c1=O; NMeV = CN[CH](C(=O)O)C(C)C; Sar = CNCC(=O)O
measured parameter: GI50

Given the entry Cn1c(=S)c2nc(SCCCc3ccccc3)[nH]c2n(C)c1=O , report its measured GI50.
36.8 µM (inactive)

# GI50 lookup, item CC1CC/C(=C\c2ccc(F)cc2)C2=C1C(c1ccc(F)cc1)NC(=S)N2 (stereo unspecified)
30 µM (inactive)

Requested field: GI50. Item: CC(=O)NC(Cc1ccc(OP(=O)(OCc2ccc([N+](=O)[O-])o2)N(C)CCCCCl)cc1)C(=O)NC(C)c1ccc(OCC2CCCCC2)c(C(N)=O)c1 (stereo unspecified)
2.79 µM (inactive)

GET /values?readout=GI50&item= Cc1nc2ccccc2c(=O)n1/N=C/c1ccc(N(C)C)cc1
> 100 µM (inactive)

Reported GI50 for CCOP(C)(=O)/C(Cc1ccc(OC)c(OC)c1)=N\O (stereo unspecified) : what is it?
> 100 µM (inactive)

// lookup GI50 for Cc1c2oc3c(C)ccc(C(=O)NC4C(=O)NC(Cc5ccc(O)cc5)C(=O)N5CCCC5C(=O)N(C)CC(=O)N(C)C(C(C)C)C(=O)OC4C)c3nc-2c(C(=O)NC2C(=O)NC(Cc3ccc(O)cc3)C(=O)N3CCCC3C(=O)N(C)CC(=O)N(C)C(C(C)C)C(=O)OC2C)c(N)c1=O (stereo unspecified) (I: TYP[Sar][NMeV] / II: TYP[Sar][NMeV]; ester I:1-I:C, II:1-II:C; linker I:N-II:N via Actinocin(9to1); configuration not given here)
4.11 µM (inactive)

----------
Please respond with reported GI50 for every item in the list.
Reply numerically in µM, unit not repeated.

Fill in the recorded GI50 for this compound, with HCT-15 as test system: COC(O)C(=O)c1c2c(cc3c1CCC3)CCCC2 (stereo not given)
4.25

What is its GI50 for HCT-15? Entry: COc1cc([C@@H]2c3cc4c(cc3[C@@H](NCc3cccc(C#N)c3)C3COC(=O)[C@@H]32)OCO4)cc(OC)c1O (stereo not given in full)
1.17

Find GI50 (HCT-15) for the entry CCOC(=O)c1cnc(-n2[nH]c3c(c2=O)CCCC3)[nH]c1=O
44.1

What is its GI50 for HCT-15? Entry: CCOP(=O)(OCC)OC1c2[nH]ccc2-c2cc(C(=O)OC)[nH]c2C1OC (stereo not given)
59.3

----------
Tested on: UO-31
assay comment: NCI tumour cell line growth inhibition, 48 h
Activity calls are given as the source filed them. No stated cut-off is given here; in the data, active = GI50 up to about 1.1 µM and inactive = higher.
// one of 1 (yes) (active), 0 (no) (inactive), no free text

Assay outcome for O=C(Cc1ccccc1)NS(=O)(=O)c1ccccc1 : what was it?
0 (no)

Fill in: this test's call for O=S(=O)(Cc1nc2ccccc2s1)c1nc2ccccc2s1 is ___
0 (no)

Hi, do you know how O=P(O)(NCCCl)NCCCl [PALIFOSFAMIDE] came out in this test?
0 (no)

For this compound, state the assay outcome: CC(=O)OC(C)(C)/C=C/C(=O)[C@](C)(O)[C@H]1[C@H](O)C[C@@]2(C)[C@@H]3CC=C4[C@@H](C=C(O)C(=O)C4(C)C)[C@]3(C)C(=O)C[C@]12C
1 (yes)

Please state the recorded outcome for this compound: CCOC(=O)c1cc2c3ccn(Cc4ccccc4)c3c3c(C)noc3c2[nH]1
0 (no)

State the result this test recorded for Cc1ccc(S(=O)(=O)N2CCCN(S(=O)(=O)c3ccc(C)cc3)CC2)cc1 .
0 (no)

Test call, this compound: COC(=O)c1cc(Cl)ccc1NC(=O)C1CCCCC1
0 (no)

Kindly provide the recorded test outcome for the following compound: NC(=O)c1ccc(N)nc1 [6-AMINONICOTINAMIDE]
0 (no)

Test call, this compound: Nc1ccc2c(=O)cc(-c3cccs3)[nH]c2n1
0 (no)

Short answer needed: outcome of this test for O=C(CCC(=O)Nc1cccc(Cl)c1)CC(=O)c1ccc(F)cc1 ?
0 (no)

FYI, the data here is from ChEMBL document CHEMBL1201862.
